Record form. Attribute: TGI. Fill in for each entry.
test system: M14 melanoma; assay: NCI tumour cell line growth inhibition, 48 h
Numbers only, in µM.

Here's what some known entries look like.
Clc1ccc(C2SCc3nc4ccccc4n32)cc1Cl (stereo not drawn) ... 27.2
CC1(C)[C@@H](O[C@@H]2OC[C@@H](O[C@@H]3O[C@H](CO)[C@@H](O)[C@H](O)[C@H]3O[C@@H]3OC[C@@H](O)[C@H](O)[C@H]3O)[C@H](O)[C@H]2O[C@@H]2O[C@H](CO)[C@@H](O)[C@H](O)[C@H]2O)CC[C@]2(C)[C@H]3CC[C@]45OC[C@@]6(CC[C@](C)(C=O)C[C@H]64)[C@H](O)C[C@@]5(C)[C@]3(C)CC[C@@H]12 ... 1.81
O=C(/C=C/c1cc(O)c(O)cc1O)OCCc1ccccc1 ... 32.7

Retrieve TGI measured for `Cc1cccc2c(=O)c3c(sc12)c(NCCNCCO)nc1ccccc13` and print it.
3.37
